- Run Description: Toxicity liver stage against HepG2, at 10uM
- Assay type: cell-based
- Design: test concentration 10 uM, cell line HepG2-A16-CD81EGFP
- Measurement Conditions: human, HepG2-A16-CD81EGFP cells; read-out: INHIBITION
Entries and their cytotoxicity at 10 µM values follow.
Express your answer as a number followed by its unit.

Molecule	cytotoxicity at 10 µM
CC(=O)Nc1ccc(Cl)c(C(=O)N(C)C(C)c2ccncn2)c1 (configuration not stated)	-42.6%
O=C(O)c1cn(CC2CCCN(c3cnc4ccccc4n3)C2)nn1 (configuration not stated)	1.57%
Cc1nnc(CN(C)CC(=O)NCCc2ccc(F)cc2)n1C	2.25%

## Task Data request, read-out cytotoxicity at 10 µM, for Cn1nc(C2CCCN(Cc3cc(F)cc(F)c3)C2)c2nccnc21 (configuration not stated)
## Result -16.3%

## Task Requested field: cytotoxicity at 10 µM. Item: "O=C(CO)N1CCN(S(=O)(=O)CCCF)CC1"
## Result -0.655%

## Task // returns reported cytotoxicity at 10 µM for input "O=C(c1cnccn1)N1CCN2C[C@H](OCc3ccccc3F)C[C@H]2C1"
## Result -2.16%

## Task I am curious: what cytotoxicity at 10 µM value has been reported for "O=C1OCCN1CCOc1nc(-c2ccccc2Cl)no1" ?
## Result -11.3%

## Task Param item = O=C(c1cccc2c1OCO2)N1CCCCC1Cn1cccn1 (configuration not stated) ; retrieve measured cytotoxicity at 10 µM.
## Result -1.25%

## Task Which cytotoxicity at 10 µM value belongs to "Cc1noc(C)c1C(=O)NCCc1cccs1" ?
## Result 12%

## Task Which cytotoxicity at 10 µM reading was recorded for the molecule "Cc1ccc(-c2nnc(NC(=O)c3ccn(C)c(=O)c3)[nH]2)s1" ?
## Result -1.15%

## Task Would you kindly share the measured cytotoxicity at 10 µM for Cc1nnc(CN2CCN(C)C3(CCC(=O)N(CCO)CC3)C2)s1 (configuration not stated) ?
## Result -14.9%

## Task Requested read-out: cytotoxicity at 10 µM. Entry: "CCn1nc(C)c(NC(=O)CCn2ncc3cc(C)ccc32)c1C"
## Result 10.8%

---

- Run Description: Toxicity liver stage against HepG2, at 10uM
- Format: cell-based
- Set-up: test concentration 10 uM, cell line HepG2-A16-CD81EGFP
- Measurement Conditions: human, HepG2-A16-CD81EGFP cells; read-out: INHIBITION
Value Kind: cytotoxicity at 10 µM (%)
// note: answer is a bare numeric in %

For orientation, consider the following solved cases.
Compound	Unit Abbreviation	Experimental Result
CCC(C)N(Cc1cccnc1)C(=O)CCSC (stereo unspecified)	%	0.305
Cc1c(F)cc(C(=O)O)cc1S(=O)(=O)Nc1ccccc1	%	-4.54
Cn1ncc(N2CCOC(CCNC(=O)CO)C2)cc1=O (stereo unspecified)	%	-8.58
CCc1nc(CN(C)C2CCN(CCn3cccn3)C2)no1 (stereo unspecified)	%	-2.21
CN(C)C(=O)N1CCN(CCCc2ccccc2)[C@H]2CS(=O)(=O)C[C@H]21	%	-5.18

## Task Would you kindly share the measured cytotoxicity at 10 µM for CN1CCCC(c2nccnc2-c2cccc(C(F)(F)F)c2)C1 (stereo unspecified) ?
## Result 7.75

## Task Fill blank: measured cytotoxicity at 10 µM of the compound "CCCC(=O)N1CCCN(C(=O)Nc2ccc(C)s2)CC1" is ____.
## Result -1.24

## Task Fill in: cytotoxicity at 10 µM of CN(C)Cc1cnc(C2CCN(C(=O)c3cccc(F)c3)C2)[nH]1 (stereo unspecified) is ___
## Result 2.54

## Task Looking for the measured cytotoxicity at 10 µM of "CCC(=O)N1C[C@@H](C(=O)NC)[C@H](c2ccnc(N3CCCC3)n2)C1" , can you help?
## Result -1.21

## Task Which cytotoxicity at 10 µM reading was recorded for the compound "COCCN(C)CCN1CC2(CCN(C3CCOCC3)CC2)OC1=O" ?
## Result 4.5

## Task Form field: reported cytotoxicity at 10 µM of "O=C(c1ccn(-c2cccc(F)c2)n1)N1CCN(CCO)CC1"
## Result -4.67
